- assay-conditions: 348.15 K; 101.33 kPa; Liquid; Vibrating tube method
Numbers after ± are expanded uncertainties.
quantity-measured: mass density
Record the result as number plus unit.

Q: Sample "CC[P+](CC)(CC)COCCOC.O=S(=O)([N-]S(=O)(=O)C(F)(F)F)C(F)(F)F" — what was its mass density?
A: 1315.8 ± 9.4 kg/m3

Q: What would you report for CCCCCCCCC[P+](CC)(CC)CC.O=[N+]([O-])c1cn[n-]c1 [triethylnonylphosphonium 4-nitropyrazolide] ?
A: 992.4 ± 5.3 kg/m3

Q: What would you report for "CC[P+](CC)(CC)COCCOC.O=[N+]([O-])c1cn[n-]c1" ?
A: 1105.8 ± 6.6 kg/m3

Q: What would you report for CCCCCCC[P+](CC)(CC)CC.O=[N+]([O-])c1cn[n-]c1 [triethylheptylphosphonium 4-nitropyrazolide] ?
A: 1008.8 ± 5.5 kg/m3

Q: What would you report for CCCCCCCCCCCCCC[P+](CCCCCC)(CCCCCC)CCCCCC.Clc1nc[n-]c1Cl [trihexyl(tetradecyl)phosphonium 4,5-dichloroimidazolide] ?
A: 934.2 ± 4.8 kg/m3

Q: What would you report for CCCCCCCCCCCCCC[P+](CCCCCC)(CCCCCC)CCCCCC.N#Cc1nc[n-]c1C#N [trihexyl(tetradecyl)phosphonium 4,5-dicyanoimidazolide] ?
A: 891 ± 4.4 kg/m3

Q: What would you report for CCCCCCCC[P+](CC)(CC)CC.O=S(=O)([N-]S(=O)(=O)C(F)(F)F)C(F)(F)F [triethyloctylphosphonium bis(trifluoromethylsulfonyl)imide] ?
A: 1204.4 ± 7.9 kg/m3

Q: What would you report for CC(=O)[O-].CCCCCCCCCCCCCC[P+](CCCCCC)(CCCCCC)CCCCCC [trihexyl(tetradecyl)phosphonium acetate] ?
A: 855.7 ± 4.2 kg/m3

Q: What would you report for CCCCCCn1cc[n+](C)c1.N#Cc1ccc[n-]1 [1-hexyl-3-methylimidazolium 2-cyanopyrrolide] ?
A: 992.1 ± 5.3 kg/m3

Q: What would you report for "CCCCCCSC(N(C)C)=[N+](C)C.O=S(=O)([N-]S(=O)(=O)C(F)(F)F)C(F)(F)F" ?
A: 1295.6 ± 9.2 kg/m3

Q: What would you report for "CCCC[S+]1CCCC1.O=S(=O)([N-]S(=O)(=O)C(F)(F)F)C(F)(F)F" ?
A: 1409.1 ± 11 kg/m3

Q: What would you report for CCCCCCCC[P+](CC)(CC)CC.O=[N+]([O-])c1c[n-]cn1 [triethyloctylphosphonium 4-nitroimidazolide] ?
A: 1000 ± 5.4 kg/m3

Q: What would you report for CCC=Cn1cc[n+](C)c1C.O=[N+]([O-])c1cn[n-]c1 [1-but-1-enyl-2,3-dimethylimidazolium 4-nitropyrazolide] ?
A: 1148.3 ± 7.2 kg/m3

Q: What would you report for CCCCCCCCCCCCCC[P+](CCCCCC)(CCCCCC)CCCCCC.O=[N+]([O-])c1cn[n-]c1 [trihexyl(tetradecyl)phosphonium 4-nitropyrazolide] ?
A: 909.9 ± 4.6 kg/m3
